target: MAGI2_4, Q86UL8; test: holdup assay; design: key: below the threshold = too weak to quantify, mostly under pKd 3.1 to 4; settings: plain residues with an end cap or a label only (N-terminal biotin on a linker: ado-ado)
Sequence (Q86UL8 772-865): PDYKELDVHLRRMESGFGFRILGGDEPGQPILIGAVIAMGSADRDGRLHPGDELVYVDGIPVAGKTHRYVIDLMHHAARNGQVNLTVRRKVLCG
In this section, each of the binders is paired with its reported pKd.
Lab note: jot down the number only; don't add units.

Examples with their reported pKd follow.
// query Reported pKd, binder KPGKGSETVV [FZD4, Q9ULV1] : ____
// result 4.48

// query Looking for the measured pKd of GTGYDRKDYV [CLDN3, O15551] , can you help?
// result 3.85

// query What does the record list as pKd for AEASVACSLC [PTGIR, P43119] ?
// result 3.72

---
// query GET /values?readout=pKd&item= ILRKSTTTTV [PRR16, Q569H4]
// result 4.14
